Reference source: PubChem BioAssay (NCI)

- System: DU-145 prostate
- PROCEDURE_TEXT: NCI-60 one-dose screen, 48 h
- EXPERIMENTAL_SETUP: 10 µM unless noted
The panel holds about 83,000 compounds, 20% with a hit somewhere; the sample as a whole holds those more often. Activity calls are given as the source filed them. How the source made its calls: active means growth percent below 10; inactive means the rest.
Outcomes: active, inactive

MOLECULE	GROUP_LABEL
CC1=CC(=O)OC1C/C=C(\C)CCC1[C@@]2(C)CCC[C@@](C)(C(=O)O)C2CC[C@@]1(C)O (stereo partly specified)	inactive
O=C(NO)c1ccc(CNc2cccc3nc(C4CC4)n(-c4ccccc4)c(=O)c23)cc1	active
CCOC(=O)C1=C(C)NC(=S)NC1c1ccccc1 (stereo unspecified)	inactive
COc1ccc(C2NC(=O)c3cc4c(cc3N2)OCO4)cc1 (stereo unspecified)	active
CC(C)(C)OC[C@@H]1N=C(c2ccc(Br)cc2)Nc2nc3ccccn3c2C1=O	inactive
S=C(Nc1ccc(Cl)cc1)Nc1ccc(Cl)cc1 (tested in a mixture with another compound)	inactive
COc1cc(C)c(Cl)cc1C1=NN(c2ccc(S(N)(=O)=O)cc2)C(/C=C/c2ccccc2)C1 (stereo unspecified)	inactive
O=C(Nc1cccc(-n2ccc3c(NC(=O)c4ccccc4)nccc32)c1)c1ccc(N2CCOCC2)c(C(F)(F)F)c1	inactive
CN(C)c1ccc(/C=C\c2cccc[n+]2C)cc1	inactive
N/C(=N\O)c1ncc(-c2ccc(C(F)(F)F)cc2)c(NC2CCCCCC2)n1	active
CC(=O)Oc1c(Cl)c(Cl)c(Cl)c(Cl)c1Cl	inactive
